test system: HT29 colon; assay: NCI tumour cell line growth inhibition, 48 h
This section presents compounds with their documented TGI values.
readout: TGI

* CO/N=C(\c1ccccc1)c1cnn(-c2ccccc2)c1N | > 25 µM
* Brc1c[n+](Cc2ccc3ccccc3c2)cn1Cc1ccc2ccccc2c1 | 3.35 µM
* COc1ccc(C(=O)C2CC3(CCC2(O)c2ccc(OC)cc2)CC(=O)Nc2ccccc2C3=O)cc1 (stereo not drawn) | > 100 µM
* COc1ccc(NC(=S)NN=C(C)c2cccc(C(C)=NNC(=S)Nc3ccc(OC)cc3)n2)cc1 | > 100 µM
* Cn1ncc2cc(-c3cnc(N)c(Cl)c3N3CCC4(CCNC4=O)CC3)ccc21 | > 100 µM
* COc1ccc(C[C@@H]2CN(C(=O)c3ccccc3)[C@H](Cc3ccc(O)cc3)CN2C(=O)c2ccccc2)cc1Br | > 100 µM
* COC(=O)OC[C@H]1O[C@@H](n2cc(C)c(=O)[nH]c2=O)CC1OC(=O)OC (stereo partly drawn) | > 100 µM
* CO/C(=N\N=C(/C)C(F)(F)F)c1ccncc1 | > 100 µM
* c1ccc2[nH]c(-c3nc4ccccc4o3)nc2c1 | > 100 µM
* OCC1SC(n2cnc3cncnc32)C(O)C1O (stereo not drawn) | > 100 µM
* CCCCCCCCCCCCNC(=O)NCC(OCC)OCC | > 10 µM
* N#Cc1[nH]c(=O)n(-c2ccc([N+](=O)[O-])cc2)c1N | > 10 µM
* CC12CC3c4ccccc4CN1C3(c1ccccc1)OC2=O (stereo not drawn) | > 100 µM
* C[N+]1(C)CC=C(N2CCOCC2)CC1 | > 10 µM
* O=[N+]([O-])/C(C(Cl)=C(Cl)Cl)=C1\Nc2ccccc2O1 | > 100 µM
* Oc1ccc(-c2cc(-c3c(O)cc(O)cc3O)on2)cc1 | > 100 µM
* COc1cc2c(cc1OC)C1c3ccccc3C(C#N)(C2)N(C(=O)c2ccccc2)C1O (stereo not drawn) | > 100 µM
* COc1c2cc(C(C)(C)C)cc1CSCc1cc(C(C)(C)C)cc(c1OC)CCCCC2 | > 50 µM
* Cc1ccc(NS(=O)(=O)c2ccc(-c3cnc(C4CC4)o3)cc2)cc1 | 11 µM
* O=[N+]([O-])c1ccccc1S(=O)c1ccccc1 (stereo not drawn) | > 100 µM
* COC(=O)[C@]1(C)CCCn2c(=O)n(-c3ccccc3)c(=O)n21 | > 100 µM
* c1cnc2c(c1)-n1cccc1C1(CCOCC1)NN2 | > 100 µM
* CCCCCCC1CCC2CCCC(C)N12 (stereo not drawn) | > 10 µM
